study_target: Phenylethanolamine N-methyltransferase (Homo sapiens) (UniProt P11086)
Sequence (P11086 whole entry, looked up): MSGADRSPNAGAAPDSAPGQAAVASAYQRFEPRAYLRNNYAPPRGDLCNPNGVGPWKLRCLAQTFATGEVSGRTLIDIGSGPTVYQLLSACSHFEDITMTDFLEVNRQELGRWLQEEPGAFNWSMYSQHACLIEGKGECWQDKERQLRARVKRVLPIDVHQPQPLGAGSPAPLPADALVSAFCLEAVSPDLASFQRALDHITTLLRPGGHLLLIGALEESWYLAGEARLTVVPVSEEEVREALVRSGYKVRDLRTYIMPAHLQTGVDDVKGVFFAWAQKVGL
test_description: Confirmatory Screen for Target Class Profiling of Small Molecule Inhibitors of Methyltransferases (AID 1745852)
condition_details: MTase-Glo luminescence, SAH detection, recombinant enzyme; measured here: PNMT max response; stronger effect = lower value
Can you tell me activity for the items I'm about to list?
# unit: % | format: bare number

The recorded activity for entry CN(C)c1nc(NC2CCC(NCCc3ccc(Br)cc3OC(F)(F)F)CC2)nc2ccccc12 (centres undefined) equals -42.3

The recorded activity for entry C=C1C(=O)OC2/C=C(\CO)CC/C=C(\C=O)CC(OC(=O)CC(C)C)C12 (centres undefined) equals -2.45

The recorded activity for entry "CCOc1cc2ncc(C#N)c(Nc3ccc(F)c(Cl)c3)c2cc1NC(=O)/C=C/CN(C)C" equals -97.3

The recorded activity for entry "CN1CCN(C(=O)c2ccc3cc(CCNc4ncnc5ccc(C#N)cc45)ccc3c2)CC1" equals -8.1

The recorded activity for entry "CN(CCc1ccc(Nc2ncc(-c3cccnc3)s2)cc1)Cc1ccccc1" equals -13.5

The recorded activity for entry "CC(C)c1cccc2c(-c3ccccc3)cc(-c3ccc(-c4ccc(C(=O)O)cc4)[nH]3)nc12" equals -5.01

The recorded activity for entry "COc1cc2c(cc1OC)N1C(=O)C[C@]34C=CCN5CC[C@@H]2[C@@H](CC3)[C@]514" equals 3.88

The recorded activity for entry "C/C=C/c1ccc2c(c1)[C@@H](C)[C@H](c1ccc(O)cc1)O2" equals 0.8

The recorded activity for entry C=C1C(=O)OC2CC3(C)C(CC12)C(C)=CC(O)C3OC(C)=O (centres undefined) equals -2.5
